tested on: SNB-19 CNS; experiment: NCI tumour cell line growth inhibition, 48 h
Item-by-item account of TGI

{"compound": "O=[N+]([O-])c1ccc2nc(Cl)n[n+]([O-])c2c1", "assay_system": "SNB-19 CNS", "TGI": "> 61.5 µM"}
{"compound": "O=C1c2[nH]cc(CNC3CN4CCC3CC4)c2C(=O)c2c1c(O)c1ccccc1c2O (stereo not given)", "assay_system": "SNB-19 CNS", "TGI": "12.4 µM"}
{"compound": "CC(C)C1OC(N)=C(C#N)C1(C#N)C#N (stereo not given)", "assay_system": "SNB-19 CNS", "TGI": "> 100 µM"}
{"compound": "Nc1ccc2nc3c(nc2c1)C(=O)c1ccccc1-3", "assay_system": "SNB-19 CNS", "TGI": "> 100 µM"}
{"compound": "CC(=O)Nc1ccc(NS(=O)(=O)c2ccc3nc(C)n(NS(=O)(=O)c4ccc(NC(C)=O)cc4)c(=O)c3c2)cc1", "assay_system": "SNB-19 CNS", "TGI": "> 100 µM"}
{"compound": "C=C1CCCC2[C@](C)(CC3=C(Cl)C(=O)C=C(OC)C3=O)C(C)CC[C@]12C (stereo not given in full)", "assay_system": "SNB-19 CNS", "TGI": "13.9 µM"}
{"compound": "C[n+]1c(/C=C/c2c[nH]c3ccccc23)ccc2ccccc21", "assay_system": "SNB-19 CNS", "TGI": "35.1 µM"}
{"compound": "Cc1ccc(S(=O)(=O)c2ccc(NC(=O)SCCC(=O)O)cc2)cc1", "assay_system": "SNB-19 CNS", "TGI": "> 100 µM"}
{"compound": "O=C1C(C(O)(C(F)(F)Cl)C(F)(F)Cl)CCCC1C(O)(C(F)(F)Cl)C(F)(F)Cl (stereo not given)", "assay_system": "SNB-19 CNS", "TGI": "> 10 µM"}
{"compound": "COc1cc(/C=C2\\C[C@H]3[C@@H]4CC=C5C[C@@H](O)CC[C@]5(C)[C@H]4CC[C@]3(C)[C@H]2O)ccc1OCCN1CCCC1", "assay_system": "SNB-19 CNS", "TGI": "31.3 µM"}
{"compound": "Cc1cc([N+](=O)[O-])ccc1NC(=O)C(=O)C(C(=O)c1ccccc1-c1ccccc1)C1OC(=O)c2ccccc21 (stereo not given)", "assay_system": "SNB-19 CNS", "TGI": "12.3 µM"}
{"compound": "C=CCC(N[C@@H](CO)c1ccccc1)c1cn(Cc2ccccc2Cl)c(=O)n(Cc2ccccc2Cl)c1=O (stereo not given in full)", "assay_system": "SNB-19 CNS", "TGI": "> 100 µM"}
{"compound": "COc1cc(=O)c2c(O)c3c(O)oc(C)cc3c(OC)c2c1", "assay_system": "SNB-19 CNS", "TGI": "> 100 µM"}
{"compound": "O=C(c1ccccc1)c1ccc(N2C(=O)/C(=C/Cc3ccco3)N=C2c2ccccc2)c(N2C(=O)/C(=C/Cc3ccco3)N=C2c2ccccc2)c1", "assay_system": "SNB-19 CNS", "TGI": "> 100 µM"}
{"compound": "CCN(CC)CCC(=O)c1ccc(Sc2ccc(F)cc2)cc1", "assay_system": "SNB-19 CNS", "TGI": "34 µM"}
{"compound": "C=CC(=O)NCCSCCCOC1(C(=O)O)CC(O)C(NC(C)=O)C(C(O)C(O)CO)O1 (stereo not given)", "assay_system": "SNB-19 CNS", "TGI": "> 100 µM"}
{"compound": "O=C(CC(CC(=O)Oc1c(Br)cc(Br)cc1C(=O)O)C(=O)Oc1c(Br)cc(Br)cc1C(=O)O)Oc1c(Br)cc(Br)cc1C(=O)O", "assay_system": "SNB-19 CNS", "TGI": "> 100 µM"}
{"compound": "COc1ccc2c(c1O)-c1cc(O)cc3c1[C@@H](C2)N(C)CC3", "assay_system": "SNB-19 CNS", "TGI": "378 µM"}
{"compound": "CC(=O)N(C)c1ccc(N=CN(C)C)cc1", "assay_system": "SNB-19 CNS", "TGI": "> 100 µM"}
{"compound": "NC(=S)N/N=C/c1nccc2ccccc12", "assay_system": "SNB-19 CNS", "TGI": "32.7 µM"}
{"compound": "Cc1nc2c(c(=O)[nH]1)S/C(=C(/C#N)c1nc3ccccc3[nH]1)N2c1ccccc1", "assay_system": "SNB-19 CNS", "TGI": "> 100 µM"}
{"compound": "Cn1c2ccccc2n2c3ncccc3c(=NCCCC(=O)O)c(C#N)c12", "assay_system": "SNB-19 CNS", "TGI": "> 100 µM"}
{"compound": "COC(=O)c1c(C)cccc1C1CN=NC12Cc1ccccc1C2=O (stereo not given)", "assay_system": "SNB-19 CNS", "TGI": "> 100 µM"}
{"compound": "C=C=C(C(=O)OC)S(=O)c1ccccc1[N+](=O)[O-] (stereo not given)", "assay_system": "SNB-19 CNS", "TGI": "> 100 µM"}
{"compound": "Cc1ccc2c(=O)cc(Cc3cccs3)[nH]c2n1", "assay_system": "SNB-19 CNS", "TGI": "> 100 µM"}
{"compound": "Cc1[nH]c(=O)nc2c1C(NCCCN(C)C)c1cc(Cl)ccc1N2 (stereo not given)", "assay_system": "SNB-19 CNS", "TGI": "31.2 µM"}
{"compound": "CC1(C)CC(=O)C(/C=N/C(N)=S)=C(O)C1", "assay_system": "SNB-19 CNS", "TGI": "> 100 µM"}
{"compound": "CCN(CC)CC(C)(C)C(=O)/C=C/c1cccc(/C=C/C(=O)C(C)(C)CN(CC)CC)c1", "assay_system": "SNB-19 CNS", "TGI": "3.89 µM"}
{"compound": "Cc1cc(=O)[nH]c(N/N=C/c2cc(Br)ccc2O)n1", "assay_system": "SNB-19 CNS", "TGI": "> 100 µM"}
{"compound": "CCCC(=O)Nc1cc(/C=C/C(=O)N2CC(CCl)c3c2cc(OCc2ccccc2)c2[nH]cc(C)c32)n(C)c1 (stereo not given)", "assay_system": "SNB-19 CNS", "TGI": "24.6 µM"}

This collection of values is drawn from PubChem BioAssay (NCI).
